Read-out: Forkhead box O3 (FOXO3), FOXO3 (gene 2309)
EXPERIMENTAL_PROTOCOL: LTEA_HepaRG_FOXO3: Life Technologies and Expression Analysis (LTEA) Assay for Forkhead box O3 (FOXO3) using HepaRG (AID 2283459)
CONDITION_NOTES: mRNA level, 48 h; actives raise or lower the signal
Active and inactive are the calls of the source. How the source made its calls: active means hit-call score of the fitted dose curve at least 0.9, where 1 is the maximum; inactive means score below 0.9.
Respond with a class label; see T (active), F (inactive)

Reference set (3 entries):
INSERT INTO measurements (molecule, group) VALUES
  ('O=C1CCC(N2C(=O)c3ccccc3C2=O)C(=O)N1 (centres undefined)', 'F'),
  ('C[C@](N)(Cc1ccc(O)c(O)c1)C(=O)O', 'F'),
  ('O=C(NS(=O)(=O)/C=C/c1ccccc1)c1ccc(F)cc1Cl', 'F');

Look up the recorded call for CCn1nc(Cc2ccccc2)cc1C1CCN(C[C@H]2C[C@H](N(C)[C@@H](C(=O)O)C(C)C)C[C@@H]2c2cccc(F)c2)CC1 in this test.
F

Let us now turn to CCCCCCc1ccc(O)cc1O
F

Let us now turn to O=C(O)CC(O)C(=O)O (centres undefined)
F

Let us now turn to CCc1cc(SCc2sc(-c3ccc(C(F)(F)F)cc3)nc2CN2CCN(c3ccc(OC)cc3)CC2)ccc1OCC(=O)O
T

Let us now turn to CC(C)CCO
F

Let us now turn to O=C1CCCCCN1
F
